These entries and their values trace back to ChEMBL document CHEMBL1961873.

Reported inhibition by item:
# Target or system: Phosphatidylinositol 4,5-bisphosphate 3-kinase catalytic subunit alpha isoform (Homo sapiens) (UniProt P42336);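 note: values are mean percent inhibition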
# Sequence (P42336 whole entry, canonical isoform): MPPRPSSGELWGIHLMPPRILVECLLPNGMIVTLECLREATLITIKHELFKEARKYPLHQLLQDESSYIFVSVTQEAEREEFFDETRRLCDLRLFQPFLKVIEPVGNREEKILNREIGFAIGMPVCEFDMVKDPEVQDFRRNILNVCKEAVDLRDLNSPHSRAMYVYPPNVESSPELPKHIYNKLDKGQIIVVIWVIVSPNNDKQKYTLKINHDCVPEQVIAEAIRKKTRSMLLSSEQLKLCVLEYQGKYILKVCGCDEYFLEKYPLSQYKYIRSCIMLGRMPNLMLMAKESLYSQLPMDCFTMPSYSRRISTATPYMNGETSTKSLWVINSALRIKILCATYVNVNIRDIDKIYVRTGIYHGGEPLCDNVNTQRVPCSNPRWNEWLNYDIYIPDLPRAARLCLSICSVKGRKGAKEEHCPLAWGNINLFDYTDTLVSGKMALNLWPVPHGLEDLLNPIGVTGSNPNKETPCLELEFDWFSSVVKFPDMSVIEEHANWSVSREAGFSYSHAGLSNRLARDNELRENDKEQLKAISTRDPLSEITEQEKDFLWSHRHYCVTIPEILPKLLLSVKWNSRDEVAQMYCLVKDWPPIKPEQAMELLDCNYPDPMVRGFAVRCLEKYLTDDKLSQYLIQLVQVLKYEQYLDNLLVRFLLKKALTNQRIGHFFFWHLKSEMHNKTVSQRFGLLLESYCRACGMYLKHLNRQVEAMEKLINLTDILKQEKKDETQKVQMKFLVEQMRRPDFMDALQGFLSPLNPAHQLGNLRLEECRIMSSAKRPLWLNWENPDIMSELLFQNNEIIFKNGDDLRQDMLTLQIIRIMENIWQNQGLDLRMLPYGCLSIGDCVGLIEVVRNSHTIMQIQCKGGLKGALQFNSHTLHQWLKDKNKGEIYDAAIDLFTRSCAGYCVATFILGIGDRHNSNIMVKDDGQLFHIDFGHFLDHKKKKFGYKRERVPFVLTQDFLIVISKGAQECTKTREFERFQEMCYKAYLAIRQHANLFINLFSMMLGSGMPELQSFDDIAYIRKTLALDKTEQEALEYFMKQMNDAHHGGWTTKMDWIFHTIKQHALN
# Assay context: at 1 µM
Readout name: inhibition (%)

1. NC(=O)c1cc(-c2ccc(F)cc2)cc(-c2ccncc2)c1N ... 22.8
2. Clc1ccc(CNc2nccc(-c3cnn4ncccc34)n2)cc1 ... 0.56
3. FC(F)(F)c1cccc(Nc2nccc(-c3cnn4nc(-c5ccccc5)ccc34)n2)c1 ... 8.98
4. O=C(Nc1n[nH]c2cc(-c3cc(F)ccc3F)ccc12)C1CC1 ... 3.65
5. C[C@@H](Oc1cc(-n2cnc3ccc(OC4CCN(C)CC4)cc32)sc1C(N)=O)c1ccccc1Cl ... 19.7
6. COc1cc2ncn(-c3cc(OCCc4ccccc4)c(C(N)=O)s3)c2cc1OC ... 3.83
7. COc1cc(Nc2ncc3c(C)nc(-c4cccc(Oc5ccccc5)c4)n3n2)cc(OC)c1OC ... 1.96
8. CN1CCN(CCCNc2nc3ccc(Oc4ccc(NC(=O)Nc5cc(C(F)(F)F)ccc5F)cc4)cc3[nH]2)CC1 ... 0.9
9. COc1ccc2ncn(-c3cc(O[C@H](C)c4ccccc4Cl)c(C(N)=O)s3)c2c1 ... 4.87
10. CCS(=O)(=O)c1ccc(OC)c(Nc2ncc(-c3ccccc3Cl)o2)c1 ... -1.53
11. Cc1nnc(-c2ccc(C)c(-c3ccc(C(=O)NCc4ccc(Cl)cc4)cc3)c2)o1 ... 2.48
12. CCS(=O)(=O)c1ccc(OC)c(Nc2ncc(-c3cccc(-c4ccccc4F)c3)o2)c1 ... 2.73
13. COC(=O)Nc1nc2ccc(Sc3ccc(NC(=O)Nc4cc(C(F)(F)F)ccc4F)cc3)cc2[nH]1 ... 8.27
14. O=C(Nc1n[nH]c2cc(-c3ccccc3)ccc12)C1CC1 ... 4.34
15. NS(=O)(=O)c1ccc(N/N=C2\C(=O)Nc3ccc(C(=O)NCCCn4ccnc4)cc32)cc1 ... 4.54
16. Fc1ccc(-c2nc3n(c2-c2ccncc2)CCS3)cc1 ... 4.45
17. Fc1ccc(-c2ncn(CCCN3CCOCC3)c2-c2ccncc2)cc1 ... 0.51
18. COc1ccc(-c2ccc3c(NC(=O)C4CC4)n[nH]c3n2)cc1 ... 0.27
19. O=C(Nc1n[nH]c2nc(-c3ccco3)ccc12)C1CC1 ... 0.99
20. O=C1NC(=O)C(c2cccc(Cl)c2)=C1Nc1ccc(Cl)c(C(=O)O)c1 ... 1.55
21. COc1cc(Nc2ncc3c(C)nc(-c4cccc(C(F)(F)F)c4)n3n2)cc(OC)c1OC ... 0.9

---

# Target or system: Dual specificity mitogen-activated protein kinase kinase 1 (Homo sapiens) (UniProt Q02750);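 note: values reported are mean inhibition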
# Sequence (Q02750 whole entry): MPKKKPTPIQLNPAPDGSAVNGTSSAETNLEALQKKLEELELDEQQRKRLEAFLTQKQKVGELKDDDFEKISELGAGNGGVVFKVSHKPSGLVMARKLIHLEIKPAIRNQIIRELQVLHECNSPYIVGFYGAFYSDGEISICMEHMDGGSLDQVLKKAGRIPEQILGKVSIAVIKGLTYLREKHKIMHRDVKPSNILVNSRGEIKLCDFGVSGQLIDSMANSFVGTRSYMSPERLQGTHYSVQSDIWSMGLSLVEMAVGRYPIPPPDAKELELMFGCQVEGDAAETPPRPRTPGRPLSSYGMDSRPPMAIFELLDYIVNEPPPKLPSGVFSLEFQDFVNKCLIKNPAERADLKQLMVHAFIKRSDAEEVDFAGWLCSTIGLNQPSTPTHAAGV
# Assay context: at 1 µM
Readout name: inhibition (%)

1) O=C(NCC1CC1)c1ccc(-c2cccc(C(=O)NC3CC3)c2)cc1 ... 1.66
2) NC(=O)c1ccc(Oc2nccc(-c3c(-c4ccc(F)cc4)ncn3C3CCNCC3)n2)cc1 ... 4.62
3) NS(=O)(=O)c1ccc(N/N=C2\C(=O)Nc3ccc(C(=O)NCCCn4ccnc4)cc32)cc1 ... 38
4) C/C(Nc1ccc(S(N)(=O)=O)cc1)=C1/C(=O)Nc2ccccc21 ... 0.96
5) CN(C)CCCNc1nccc(-c2c(-c3ccc(F)cc3)nn3cc(C(F)(F)F)ccc23)n1 ... 2.52
6) O=C(Nc1n[nH]c2nc(-c3ccco3)ccc12)C1CC1 ... 0.75
